studySystem: Poly [ADP-ribose] polymerase 1 (Homo sapiens, UniProt P09874)
Sequence (P09874 whole entry): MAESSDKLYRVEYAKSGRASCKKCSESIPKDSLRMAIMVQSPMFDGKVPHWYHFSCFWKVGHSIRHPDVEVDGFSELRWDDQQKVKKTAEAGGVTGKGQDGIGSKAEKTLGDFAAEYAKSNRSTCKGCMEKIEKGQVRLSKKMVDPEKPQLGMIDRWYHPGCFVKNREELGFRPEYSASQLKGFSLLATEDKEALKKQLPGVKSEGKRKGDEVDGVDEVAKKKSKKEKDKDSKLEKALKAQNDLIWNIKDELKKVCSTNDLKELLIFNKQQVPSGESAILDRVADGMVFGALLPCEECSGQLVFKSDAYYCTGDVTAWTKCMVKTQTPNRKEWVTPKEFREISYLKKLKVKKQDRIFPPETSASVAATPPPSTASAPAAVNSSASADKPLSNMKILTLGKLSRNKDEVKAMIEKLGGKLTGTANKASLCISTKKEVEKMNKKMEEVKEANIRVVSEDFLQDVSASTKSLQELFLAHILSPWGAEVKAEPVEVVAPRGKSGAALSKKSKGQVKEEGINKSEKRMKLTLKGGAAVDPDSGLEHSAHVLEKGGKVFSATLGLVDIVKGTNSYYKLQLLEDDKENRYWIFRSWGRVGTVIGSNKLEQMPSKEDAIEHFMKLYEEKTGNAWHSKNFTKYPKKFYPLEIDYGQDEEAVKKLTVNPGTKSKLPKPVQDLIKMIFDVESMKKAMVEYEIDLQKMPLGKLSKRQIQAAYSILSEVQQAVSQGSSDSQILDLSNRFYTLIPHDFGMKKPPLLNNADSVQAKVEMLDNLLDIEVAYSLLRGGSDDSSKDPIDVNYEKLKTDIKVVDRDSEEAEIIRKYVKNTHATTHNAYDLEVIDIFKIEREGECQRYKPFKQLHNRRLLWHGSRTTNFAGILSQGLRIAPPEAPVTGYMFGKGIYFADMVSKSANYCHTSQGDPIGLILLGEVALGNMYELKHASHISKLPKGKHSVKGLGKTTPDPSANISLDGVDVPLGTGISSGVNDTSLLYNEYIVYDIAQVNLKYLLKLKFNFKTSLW
pIC50: −log10 of the molar value.
readoutType: pIC50

>  <smilesInput>
O=C1NCCc2c(OCCCCN3CCCCC3)cccc21

>  <studySystem>
Poly [ADP-ribose] polymerase 1 (Homo sapiens, UniProt P09874)

>  <readoutType>
pIC50

>  <measuredValue>
7.27

$$$$

###

Below: a set of entries, each annotated with reported Activity.
assayProtocol: Antioxidant activity against H2O2-induced oxidative stress in chicken RBC assessed as superoxide dismutase activity by measuring pyrogallol oxidization per mg protein pre-incubated at 50 uM followed by H2O2 addition by UV spectroscopy (reference value: 11.32 +/- 1.96 pyrogallol oxidized/min/mg of protein)
Format: functional, Gallus gallus, Erythrocyte
readoutType: Activity (µmol/min)

>  <compound>
O=C1c2ccccc2C2(O)c3ccc(Br)cc3CCN12 (stereo not given)

>  <measuredValue>
14.05

$$$$
>  <compound>
COc1ccc(OC)c2c1CCN1C(=O)c3ccccc3C21O (stereo not given)

>  <measuredValue>
19.24

$$$$
>  <compound>
COc1ccc2c(c1)CCN1C(=O)c3ccccc3C21O (stereo not given)

>  <measuredValue>
11.87

$$$$
>  <compound>
Cc1ccc2c(c1)CCN1C(=O)c3ccccc3C21O (stereo not given)

>  <measuredValue>
14.56

$$$$
>  <compound>
COc1ccc2c(c1OC)CCN1C(=O)CCCC21 (stereo not given)

>  <measuredValue>
11.48

$$$$
>  <compound>
COc1cc2c(c(OC)c1)C1CCC(=O)N1CC2 (stereo not given)

>  <measuredValue>
19.43

$$$$
>  <compound>
COc1ccc2c(c1OC)CCN1C(=O)c3ccccc3C21O (stereo not given)

>  <measuredValue>
15.96

$$$$
>  <compound>
COc1cc2c(cc1OC)C1(O)C3C4c5ccccc5C(c5ccccc54)C3C(=O)N1CC2 (stereo not given)

>  <measuredValue>
19.63

$$$$
>  <compound>
COc1cc2c(cc1OC)C1(O)c3ccccc3C(=O)N1CC2 (stereo not given)

>  <measuredValue>
19.35

$$$$
>  <compound>
COc1cc2c(cc1O)C1(O)c3ccccc3C(=O)N1CC2 (stereo not given)

>  <measuredValue>
21.63

$$$$

These entries and their values trace back to ChEMBL document CHEMBL3393053.
